These data points were gathered from ChEMBL document CHEMBL2163248.

# SYSTEM NAME: Solute carrier organic anion transporter family member 1B1 (Homo sapiens, UniProt Q9Y6L6)
# Sequence (Q9Y6L6 whole entry): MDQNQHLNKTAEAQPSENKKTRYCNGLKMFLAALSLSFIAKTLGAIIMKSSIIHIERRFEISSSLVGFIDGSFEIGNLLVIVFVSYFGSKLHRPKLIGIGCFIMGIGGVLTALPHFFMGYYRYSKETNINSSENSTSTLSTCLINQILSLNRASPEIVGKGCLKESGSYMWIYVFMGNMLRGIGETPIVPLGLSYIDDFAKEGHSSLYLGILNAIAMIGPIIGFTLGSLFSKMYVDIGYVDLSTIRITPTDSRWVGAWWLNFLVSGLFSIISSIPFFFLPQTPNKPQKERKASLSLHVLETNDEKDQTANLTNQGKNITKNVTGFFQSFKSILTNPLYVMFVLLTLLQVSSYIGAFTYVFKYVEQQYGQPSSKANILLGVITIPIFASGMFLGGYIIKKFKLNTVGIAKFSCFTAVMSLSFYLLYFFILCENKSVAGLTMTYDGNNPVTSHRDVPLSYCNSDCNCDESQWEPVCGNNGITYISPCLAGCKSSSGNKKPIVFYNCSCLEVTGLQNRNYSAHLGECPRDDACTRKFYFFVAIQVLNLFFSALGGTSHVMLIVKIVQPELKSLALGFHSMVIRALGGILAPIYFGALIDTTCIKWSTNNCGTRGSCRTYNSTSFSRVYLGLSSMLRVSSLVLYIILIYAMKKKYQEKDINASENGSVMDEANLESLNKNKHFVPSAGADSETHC
# PROTOCOL DETAILS: Inhibition of human liver OATP1B1 expressed in HEK293 Flp-In cells assessed as reduction in E17-betaG uptake at 20 uM by scintillation counting
# CONDITION: hek293, 20 µM
Listing of recorded INH by entry.
Could you give me the number in %? Just the number is fine.

Consider the following illustrative entries.
O=C1C[C@@H](c2ccc(O)cc2)Oc2cc(O)cc(O)c21 = 34.8
COc1cc2c(cc1OC)CN(CCc1ccc(NC(=O)c3cccc4c(=O)c5cccc(OC)c5[nH]c34)cc1)CC2 = 94.4
C=C(C)[C@@H]1CCC2=CC(=O)C[C@@H](C)[C@]2(C)C1 = 25.6

API: the following record is the query input.
State, in one line, measured INH of "CCOC(=O)[C@H](CCc1ccccc1)N[C@@H](C)C(=O)N1CCC[C@H]1C(=O)O"
-7.5
